# Tested on: Staphylococcus aureus
# test.details: Antibacterial activity against Staphylococcus aureus ATCC 25923 assessed as bacterial growth inhibition incubated for 18 hrs by broth microdilution method
# Assay type: functional
One threshold, 8 µg/mL, splits the recorded MIC values: lower ones are 1 (yes), equal or higher ones are 0 (no).

INSERT INTO results (compound, target_desc, label) VALUES
  ('CCCCCC(=O)N[C@@H](CCN)C(=O)N[C@H](C(=O)N[C@@H](CCN)C(=O)N[C@H](Cc1ccccc1)C(=O)N[C@@H](CC(C)C)C(=O)N[C@@H](CCN)C(=O)N[C@@H](C(=O)N[C@@H](CC(C)C)C(=O)N[C@H](C(N)=O)[C@@H](C)O)C(C)C)[C@@H](C)CC', 'Staphylococcus aureus', '0 (no)'),
  ('CCCCCCCCCCC(=O)N[C@@H](CCN)C(=O)N[C@H](C(=O)N[C@@H](CCN)C(=O)N[C@H](Cc1ccccc1)C(=O)N[C@@H](CC(C)C)C(=O)N[C@@H](CCN)C(=O)N[C@@H](C(=O)N[C@@H](CC(C)C)C(=O)N[C@H](C(N)=O)[C@@H](C)O)C(C)C)[C@@H](C)CC', 'Staphylococcus aureus', '1 (yes)'),
  ('CCCCCC(=O)N[C@@H](CCN)C(=O)N[C@H](C(=O)N[C@@H](CCN)C(=O)N[C@H](Cc1ccccc1)C(=O)N[C@@H](CC(C)C)C(=O)N[C@@H](CCN)C(=O)N[C@@H](C(=O)N[C@@H](CC(C)C)C(=O)N[C@@H](Cc1ccccc1)C(N)=O)C(C)C)[C@@H](C)CC', 'Staphylococcus aureus', '0 (no)'),
  ('CCCCCCCCCC(=O)N[C@@H](CCN)C(=O)N[C@H](C(=O)N[C@@H](CCN)C(=O)N[C@H](Cc1ccccc1)C(=O)N[C@@H](CC(C)C)C(=O)N[C@@H](CCN)C(=O)N[C@@H](C(=O)N[C@@H](CC(C)C)C(=O)N[C@H](C(N)=O)[C@@H](C)O)C(C)C)[C@@H](C)CC', 'Staphylococcus aureus', '1 (yes)'),
  ('CC[C@H](C)[C@@H]1NC(=O)[C@H](CCN)NC(=O)[C@H](CC(C)C)NC(=O)[C@H]([C@@H](C)O)NC(=O)[C@H](CC(C)C)NC(=O)[C@@H](C(C)C)NC(=O)[C@H](CCN)NC(=O)[C@H](CC(C)C)NC(=O)[C@@H](Cc2ccccc2)NC(=O)[C@H](CCN)NC1=O', 'Staphylococcus aureus', '0 (no)'),
  ('CCCCCC(=O)N[C@H]1CCNC(=O)[C@H]([C@@H](C)O)NC(=O)[C@H](CC(C)C)NC(=O)[C@@H](C(C)C)NC(=O)[C@H](CCN)NC(=O)[C@H](CC(C)C)NC(=O)[C@@H](Cc2ccccc2)NC(=O)[C@H](CCN)NC(=O)[C@H]([C@@H](C)CC)NC1=O', 'Staphylococcus aureus', '0 (no)'),
  ('CCCCCC(=O)N[C@@H](CCN)C(=O)N[C@H](C(=O)N[C@@H](CCN)C(=O)N[C@H](Cc1ccccc1)C(=O)N[C@@H](CC(C)C)C(=O)N[C@@H](CCN)C(=O)N[C@@H](C(=O)N[C@@H](CC(C)C)C(=O)N[C@@H](C)C(N)=O)C(C)C)[C@@H](C)CC', 'Staphylococcus aureus', '0 (no)'),
  ('CCCCCCC(=O)N[C@@H](CCN)C(=O)N[C@H](C(=O)N[C@@H](CCN)C(=O)N[C@H](Cc1ccccc1)C(=O)N[C@@H](CC(C)C)C(=O)N[C@@H](CCN)C(=O)N[C@@H](C(=O)N[C@@H](CC(C)C)C(=O)N[C@H](C(N)=O)[C@@H](C)O)C(C)C)[C@@H](C)CC', 'Staphylococcus aureus', '0 (no)'),
  ('NC[C@H]1O[C@H](O[C@H]2[C@H](O)[C@@H](O[C@H]3O[C@H](CO)[C@@H](O)[C@H](N)[C@H]3O)[C@H](N)C[C@@H]2N)[C@H](O)[C@@H](O)[C@@H]1O [KANAMYCIN]', 'Staphylococcus aureus', '1 (yes)'),
  ('C/C=C(/NC(=O)[C@H](CC(C)C)NC(=O)[C@H](NC(=O)[C@H](CCN)NC(=O)[C@H](CC(C)C)NC(=O)[C@@H](Cc1ccccc1)NC(=O)[C@H](CCN)NC(=O)[C@@H](NC(=O)[C@H](CCN)NC(=O)C[C@@H](O)CCC)[C@@H](C)CC)C(C)C)C(=O)O', 'Staphylococcus aureus', '0 (no)'),
  ('CC[C@H](C)[C@H](NC(=O)[C@@H](N)CCN)C(=O)N[C@@H](CCN)C(=O)N[C@H](Cc1ccccc1)C(=O)N[C@@H](CC(C)C)C(=O)N[C@@H](CCN)C(=O)N[C@@H](C(=O)N[C@@H](CC(C)C)C(=O)N[C@H](C(N)=O)[C@@H](C)O)C(C)C', 'Staphylococcus aureus', '0 (no)');

====

# Test system: Escherichia coli
# test.details: Inhibition of biofilm formation in Escherichia coli ATCC 25922 assessed as inhibition of biofilm formation at 1/4 times MIC incubated for 24 hrs by crystal violet staining based analysis
# Format: functional, organism-based
Calls of active or inactive are those of the source. The calls are words filed in the database; no cut-off is given here. Where a SMILES comes first, the peptide text is derived from it. Bridges are numbered along the chain shown (N, C = ends). [ ]: non-standard residue; d: D form. The star is where a group is joined. Heptanoyl(6-Me) = CC(C)CCCCC(=O)*; dDab = NCC[C@@H](N)C(=O)O; Dab = NCC[C@H](N)C(=O)O
Possible outcomes: active, inactive

INSERT INTO assay_data (compound, target_desc, label) VALUES
  ('CCCCCCC(=O)N[C@@H](CCN)C(=O)N[C@H](C(=O)N[C@@H](CCN)C(=O)N[C@H](Cc1ccccc1)C(=O)N[C@@H](CC(C)C)C(=O)N[C@@H](CCN)C(=O)N[C@@H](C(=O)N[C@@H](CC(C)C)C(=O)N[C@@H](Cc1ccc(O)cc1)C(N)=O)C(C)C)[C@@H](C)CC', 'Escherichia coli', 'active'),
  ('CCCCCCCC(=O)N[C@@H](CCN)C(=O)N[C@H](C(=O)N[C@@H](CCN)C(=O)N[C@H](Cc1ccccc1)C(=O)N[C@@H](CC(C)C)C(=O)N[C@@H](CCN)C(=O)N[C@@H](C(=O)N[C@@H](CC(C)C)C(=O)N[C@@H](Cc1ccc(O)cc1)C(N)=O)C(C)C)[C@@H](C)CC', 'Escherichia coli', 'inactive'),
  ('CC[C@H](C)[C@@H]1NC(=O)[C@H](CCN)NC(=O)C[C@@H](C(C)C)OC(=O)[C@H]([C@@H](C)O)NC(=O)[C@H](CC(C)C)NC(=O)[C@@H](C(C)C)NC(=O)[C@H](CCN)NC(=O)[C@H](CC(C)C)NC(=O)[C@@H](Cc2ccccc2)NC(=O)[C@H](CCN)NC1=O', 'Escherichia coli', 'inactive'),
  ('CC(C)CCCCC(=O)N[C@@H](CCN)C(=O)N[C@H](C(=O)N[C@@H](CCN)C(=O)N[C@H]1CCNC(=O)[C@H]([C@@H](C)O)NC(=O)[C@H](CCN)NC(=O)[C@H](CCN)NC(=O)[C@H](CC(C)C)NC(=O)[C@@H](Cc2ccccc2)NC(=O)[C@@H](CCN)NC1=O)[C@@H](C)O ({Heptanoyl(6-Me)}-[Dab]T[Dab][Dab][dDab][dF]L[Dab][Dab]T; lactam 4-C)', 'Escherichia coli', 'active');

====

# System: Enterococcus faecalis
# test.details: Antibacterial activity against Enterococcus faecalis ATCC 29212 assessed as bacterial growth inhibition incubated for 18 hrs by broth microdilution method
# Format: functional
observed.property: MIC (µg/mL)

INSERT INTO results (query_smiles, limit_sign, readout_value) VALUES
  ('CCCCCC(=O)N[C@@H](CCN)C(=O)N[C@H](C(=O)N[C@@H](CCN)C(=O)N[C@H](Cc1ccccc1)C(=O)N[C@@H](CC(C)C)C(=O)N[C@@H](CCN)C(=O)N[C@@H](C(=O)N[C@@H](CC(C)C)C(=O)N[C@@H](CCCCN)C(N)=O)C(C)C)[C@@H](C)CC', '=', 128),
  ('CCCCCC(=O)N[C@@H](CCN)C(=O)N[C@H](C(=O)N[C@@H](CCN)C(=O)N[C@H](Cc1ccccc1)C(=O)N[C@@H](CC(C)C)C(=O)N[C@@H](CCN)C(=O)N[C@@H](C(=O)N[C@@H](CC(C)C)C(=O)N[C@@H](Cc1c[nH]c2ccccc12)C(N)=O)C(C)C)[C@@H](C)CC', '=', 32),
  ('CCCCCC(=O)N[C@@H](CCN)C(=O)N[C@H](C(=O)N[C@@H](CCN)C(=O)N[C@H](Cc1ccccc1)C(=O)N[C@@H](CC(C)C)C(=O)N[C@@H](CCN)C(=O)N[C@@H](C(=O)N[C@@H](CC(C)C)C(=O)N[C@H](C(N)=O)[C@@H](C)O)C(C)C)[C@@H](C)CC', '=', 128),
  ('CCCCCC(=O)N[C@@H](CCN)C(=O)N[C@H](C(=O)N[C@@H](CCN)C(=O)N[C@H](Cc1ccccc1)C(=O)N[C@@H](CC(C)C)C(=O)N[C@@H](CCN)C(=O)N[C@@H](C(=O)N[C@@H](CC(C)C)C(=O)N[C@@H](Cc1ccccc1)C(N)=O)C(C)C)[C@@H](C)CC', '=', 64),
  ('CC[C@H](C)[C@@H]1NC(=O)[C@H](CCN)NC(=O)[C@H](CC(C)C)NC(=O)[C@H]([C@@H](C)O)NC(=O)[C@H](CC(C)C)NC(=O)[C@@H](C(C)C)NC(=O)[C@H](CCN)NC(=O)[C@H](CC(C)C)NC(=O)[C@@H](Cc2ccccc2)NC(=O)[C@H](CCN)NC1=O', '>', 128),
  ('CCCCCC(=O)N[C@H]1CCNC(=O)[C@H]([C@@H](C)O)NC(=O)[C@H](CC(C)C)NC(=O)[C@@H](C(C)C)NC(=O)[C@H](CCN)NC(=O)[C@H](CC(C)C)NC(=O)[C@@H](Cc2ccccc2)NC(=O)[C@H](CCN)NC(=O)[C@H]([C@@H](C)CC)NC1=O', '>', 128);
